Data origin, for the record: PubChem BioAssay (NCI)

system: NCI-H460 lung; assay: NCI tumour cell line growth inhibition, 48 h
testReadout: TGI

Worked cases, TGI given:
CC1=C2C(=O)O[C@@H](c3ccoc3)[C@]2(C)CCC1	> 100 µM
O=C1Cc2c([nH]c3ccc(Br)cc23)-c2cc(Br)ccc2N1	> 100 µM
CCN(CC)c1sc(N(CC)CC)c2c1SSSSS2	6.02 µM

Summary for this compound, CN(CCC(=O)N1CC(CCl)c2ccc([N+](=O)[O-])cc21)CCC(=O)N1CC(CCl)c2ccc([N+](=O)[O-])cc21 (centres undefined) : TGI is > 100 µM

Measured TGI, CC(=O)OCC(OC(C)=O)C1C[C@H]2O[C@@H]3[C@H](C[C@H]2O1)O[C@@]1(C[C@@H]3C)C[C@H](C)[C@@H]2O[C@]3(C[C@@H]2O1)C[C@H]1O[C@H]2[C@H](C)[C@H]4OC(=O)C[C@H]5CC[C@@H]6OC7[C@H]8O[C@]9(CC[C@H]%10CC(=O)[C@H](CC[C@H]%11C[C@@H](C)C(=O)C(C[C@@H]4O[C@H]2C[C@H]1O3)O%11)O%10)CC8O[C@@H]7[C@@H](O9)[C@H]6O5 (some centres undefined) : > 1 µM

Sample `COc1cc(OC(=O)c2c(O)cc(O)c(O)c2C)cc(C)c1C(=O)Oc1cc(C)c(C(=O)O)c(O)c1` ; TGI observed: > 100 µM

Per the record, Cc1c(N=Nc2ccccc2)c(-c2ccccc2)n(C2OC(CO)C(O)C(O)C2O)c(=S)c1C#N (centres undefined) has TGI of 97.6 µM

Lab note: measured TGI of CCCCCCCC(CC(=O)NC(CO)C(=O)NC(CO)CC(C)C)OC(=O)CC(CCCCCCC)OC(=O)CC(CCCCCCC)OC1OC(C)C(O)C(OC2OC(C)C(O)C(OC(C)=O)C2O)C1O (centres undefined) was 26.1 µM

The measured TGI associated with `CC(C)C[C@H]1[C@@H](OCc2ccccc2)COS(=O)(=O)N1[C@H](C)c1ccccc1` reads > 100 µM

Data point: `CC/C=C\C[C@@H]1C/C=C2/C(=O)C=C[C@H]2C/C=C\CCCC(=O)O1` ; TGI = 7.45 µM

GET /value?item= `O=C(O)c1cccc(Nc2c(C(=O)O)cccc2[N+](=O)[O-])c1` &field=TGI returns > 100 µM

Sample `CCOC(=O)c1cc(/C(=N\O)c2cc(OC)c(OC)c(OC)c2)n2cc(C)cc(C)c12` ; TGI observed: 7.64 µM
